# assay details: soluble on expression in E. coli; label from the status in PepcDB or PDB records
property label: soluble on expression in E. coli

| construct sequence | value |
| --- | --- |
| MGSDKIHHHHHHMKDDVSAPSRYRPSIFAVPFQRHGDGTAVELLSPSEQDALIAISRLVTVRRHTVLYPEGGDARFAYNIVSGVAETYQLLPNGDKRITAFLFPRDLMGLSENGAYVATAQSLTPLVAYRIPVEALAEILERDPRLDIGLLCKLCHELRRSQHHTITVSKNEAPARLASFLVWIQHAYPEEGRAEGEVMLPMSRHDIADYLGLSVESVSRGLHVLEAQDAVRRKGPRLVTVLDPAKLRRLAGQD | not soluble |
| MAELHIIGQIIGATGFPQNSLFCKWGVHTGGAWRLLSGLREGQTQVDMPQTGDMAYWSHPIDLHYTTKGLQGWPKLHLQVWHQDSFGRCQLYGYGYIHVPSSPGQHRLQCVTWRPLGSWQDQLSEMFVGGGPQLRSPDLIYSGADRYRLHTVGMGTVELELCIILRHFDRYGVES | not soluble |
| MKNLPIGGVWKGKVKLHSNSPAQDYFANITLNTLDPNHIDVFFPEFAHATPRVQLDLHPTGSVNGSNYAQDLTMLDMCLYDGFNGNAISYEIMLKDEGRPAAGRRDGYFSIYRQGGTTTDEGERIDYRVKMYNPETGGQIDVRNNENMVWNSINLKRVRPVVLPGIRYAVMCVPTPLTLAVDKFSVMDKQAGYYMGKLSVIFTPSLPTIN | not soluble |
